- ASSAYED TARGET: 1,3-fucosyl transferase in extracts from CHO cells transfected with clone 7.2 (Homo sapiens, UniProt P22083)
- Construct: expressed in transfected cells; host or cells: CHO cells transfected with clone 7.2; Triton X-100 lysate
- Sequence (P22083 126-530): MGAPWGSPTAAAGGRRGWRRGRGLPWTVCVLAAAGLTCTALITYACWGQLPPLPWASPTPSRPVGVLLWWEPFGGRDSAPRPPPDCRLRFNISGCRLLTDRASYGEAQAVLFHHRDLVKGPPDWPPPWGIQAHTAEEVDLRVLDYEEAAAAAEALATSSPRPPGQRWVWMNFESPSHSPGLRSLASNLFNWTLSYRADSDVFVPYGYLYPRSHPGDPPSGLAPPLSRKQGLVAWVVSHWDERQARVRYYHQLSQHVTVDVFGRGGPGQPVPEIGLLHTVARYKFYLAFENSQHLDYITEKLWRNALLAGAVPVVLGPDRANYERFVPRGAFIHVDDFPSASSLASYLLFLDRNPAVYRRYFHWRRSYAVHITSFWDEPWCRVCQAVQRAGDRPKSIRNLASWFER
- ASSAY METHOD TEXT: fucosyl transferase enzyme assay: linking 14C-fucose to acceptor molecules
- Format: biochemical
- REPORTED CONDITIONS: enzyme freshly produced from transfected CHO cells; 1 hour at 37° C
REPORTED PROPERTY: Efficiency of Fucosylation

Field Efficiency of Fucosylation (entry CC(=O)N[C@@H]1[C@@H](O[C@@H]2O[C@H](CO)[C@H](O)[C@H](O)[C@H]2O)[C@H](O)[C@@H](CO)O[C@@H]1O [Lac-N-Biose, Lac-N-biose] ) reads 76 picomoles/mg Total protein · h

Field Efficiency of Fucosylation (entry CC(=O)N[C@H]1C(O)O[C@H](CO)[C@@H](O[C@@H]2O[C@H](CO)[C@H](O)[C@H](O)[C@H]2O)[C@@H]1O (stereo partly shown) [LacNAc] ) reads 1110 picomoles/mg Total protein · h

Field Efficiency of Fucosylation (entry OC[C@H]1O[C@@H](O[C@H]2[C@H](O)[C@@H](O)C(O)O[C@@H]2CO)[C@H](O)[C@@H](O)[C@H]1O (stereo partly shown) [Lactose, lactose] ) reads 290 picomoles/mg Total protein · h
